Reported self-cleavage kobs at 2500 uM GlcN6P values follow for various variants
B1: glmS ribozyme (parent)
chain: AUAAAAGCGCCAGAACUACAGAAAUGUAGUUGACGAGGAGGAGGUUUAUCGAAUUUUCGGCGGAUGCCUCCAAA

- Variants of: B1
- Method notes: self-cleavage kobs at 2500 uM GlcN6P; higher = faster cleavage; RNA array
- Test settings: with glucosamine-6-phosphate
Variants at the floor of the assay were thinned out.

[
  {
    "Mutant": "U54A C58G",
    "Unit of measure": "s⁻¹",
    "Comparative sign": "=",
    "self-cleavage kobs at 2500 uM GlcN6P": "7.4e-05"
  },
  {
    "Mutant": "A15U U30G",
    "Unit of measure": "s⁻¹",
    "Comparative sign": "=",
    "self-cleavage kobs at 2500 uM GlcN6P": 0.0219
  },
  {
    "Mutant": "A15G U47G",
    "Unit of measure": "s⁻¹",
    "Comparative sign": "=",
    "self-cleavage kobs at 2500 uM GlcN6P": 0.00298
  },
  {
    "Mutant": "C16A G66U",
    "Unit of measure": "s⁻¹",
    "Comparative sign": "=",
    "self-cleavage kobs at 2500 uM GlcN6P": "2.61e-05"
  },
  {
    "Mutant": "A39G U45G",
    "Unit of measure": "s⁻¹",
    "Comparative sign": "=",
    "self-cleavage kobs at 2500 uM GlcN6P": 0.00467
  },
  {
    "Mutant": "A15G A39G",
    "Unit of measure": "s⁻¹",
    "Comparative sign": "=",
    "self-cleavage kobs at 2500 uM GlcN6P": 0.037
  },
  {
    "Mutant": "U46C G60C C61U",
    "Unit of measure": "s⁻¹",
    "Comparative sign": "<",
    "self-cleavage kobs at 2500 uM GlcN6P": "1e-05"
  },
  {
    "Mutant": "C34A A48C",
    "Unit of measure": "s⁻¹",
    "Comparative sign": "<",
    "self-cleavage kobs at 2500 uM GlcN6P": "1e-05"
  },
  {
    "Mutant": "C16U A52U",
    "Unit of measure": "s⁻¹",
    "Comparative sign": "=",
    "self-cleavage kobs at 2500 uM GlcN6P": 0.000132
  },
  {
    "Mutant": "A14U C16G U65A",
    "Unit of measure": "s⁻¹",
    "Comparative sign": "=",
    "self-cleavage kobs at 2500 uM GlcN6P": "5.56e-05"
  },
  {
    "Mutant": "G13A C70U",
    "Unit of measure": "s⁻¹",
    "Comparative sign": "=",
    "self-cleavage kobs at 2500 uM GlcN6P": 0.000388
  },
  {
    "Mutant": "G35C C50G U54G",
    "Unit of measure": "s⁻¹",
    "Comparative sign": "=",
    "self-cleavage kobs at 2500 uM GlcN6P": "8.42e-05"
  },
  {
    "Mutant": "A33U C34G A36U C67U",
    "Unit of measure": "s⁻¹",
    "Comparative sign": "<",
    "self-cleavage kobs at 2500 uM GlcN6P": "1e-05"
  },
  {
    "Mutant": "A12U G29A A52U",
    "Unit of measure": "s⁻¹",
    "Comparative sign": "=",
    "self-cleavage kobs at 2500 uM GlcN6P": 0.00021
  },
  {
    "Mutant": "G32A G43A G63C",
    "Unit of measure": "s⁻¹",
    "Comparative sign": "<",
    "self-cleavage kobs at 2500 uM GlcN6P": "1e-05"
  },
  {
    "Mutant": "G32C G51A G66A",
    "Unit of measure": "s⁻¹",
    "Comparative sign": "<",
    "self-cleavage kobs at 2500 uM GlcN6P": "1e-05"
  },
  {
    "Mutant": "U31G C34U A42G",
    "Unit of measure": "s⁻¹",
    "Comparative sign": "<",
    "self-cleavage kobs at 2500 uM GlcN6P": "1e-05"
  },
  {
    "Mutant": "A15G G29U U54C",
    "Unit of measure": "s⁻¹",
    "Comparative sign": "=",
    "self-cleavage kobs at 2500 uM GlcN6P": 0.000796
  },
  {
    "Mutant": "C16A A42C",
    "Unit of measure": "s⁻¹",
    "Comparative sign": "<",
    "self-cleavage kobs at 2500 uM GlcN6P": "1e-05"
  },
  {
    "Mutant": "G32U U47A A53G U56A C71U",
    "Unit of measure": "s⁻¹",
    "Comparative sign": "=",
    "self-cleavage kobs at 2500 uM GlcN6P": 0.000259
  },
  {
    "Mutant": "G7A A48U C71U",
    "Unit of measure": "s⁻¹",
    "Comparative sign": "<",
    "self-cleavage kobs at 2500 uM GlcN6P": "1e-05"
  },
  {
    "Mutant": "U45A U54G C68G",
    "Unit of measure": "s⁻¹",
    "Comparative sign": "=",
    "self-cleavage kobs at 2500 uM GlcN6P": "9.7e-05"
  }
]
